Test: gradient 5% acetonitrile 3 min, to 50% in 2 min, to 85% in 15 min, held 3 min, 100 µL/min
Conditions: column: Zorbax Extend-C18 2.1 x 50 mm; eluents: water / acetonitrile, 0.1% formic acid
Please go through the items and note down their RP-LC retention time.
Please respond with the number in s and leave the unit unwritten.

In: So what's the measured RP-LC retention time for this one? COc1cccc(C(=O)N2CCC3(CC2)N=C(c2ccccc2)NO3)c1
Out: 728

In: So what's the measured RP-LC retention time for this one? O=P(Oc1ccccc1)(Oc1ccccc1)c1ccccc1
Out: 1070

In: So what's the measured RP-LC retention time for this one? Fc1ccc(-c2ccc(CNCc3cccs3)o2)cc1
Out: 706

In: So what's the measured RP-LC retention time for this one? O=C(NCC1CCCO1)c1cccc(Nc2c(-c3ccc(Cl)cc3)nc3cnccn23)c1 (stereo not given)
Out: 753

In: So what's the measured RP-LC retention time for this one? COCCCNC(=O)C1CCCN(c2ncc(-c3ccc(F)cc3)cn2)C1 (stereo not given)
Out: 824

Where do the numbers come from? From the METLIN SMRT retention time set (Domingo-Almenara et al. 2019).
